// endpoint Kd / system Arginase (Schistosoma mansoni)
measurement.kind: Kd

compound: N[C@@](CCCCB(O)O)(C(=O)O)C1CCN(Cc2ccc(Cl)c(Cl)c2)CC1
value.reported: 540 nM
--
compound: N[C@](CCCCB(O)O)(CCN1CCCCC1)C(=O)O
value.reported: 260 nM
--
compound: N[C@@H](CCCCB(O)O)C(=O)O [2(S)-amino-6-boronohexanoic acid (ABH)]
value.reported: 1300 nM

====

Target: Arginase (Schistosoma mansoni)
Sequence (Q6WVP6 whole entry): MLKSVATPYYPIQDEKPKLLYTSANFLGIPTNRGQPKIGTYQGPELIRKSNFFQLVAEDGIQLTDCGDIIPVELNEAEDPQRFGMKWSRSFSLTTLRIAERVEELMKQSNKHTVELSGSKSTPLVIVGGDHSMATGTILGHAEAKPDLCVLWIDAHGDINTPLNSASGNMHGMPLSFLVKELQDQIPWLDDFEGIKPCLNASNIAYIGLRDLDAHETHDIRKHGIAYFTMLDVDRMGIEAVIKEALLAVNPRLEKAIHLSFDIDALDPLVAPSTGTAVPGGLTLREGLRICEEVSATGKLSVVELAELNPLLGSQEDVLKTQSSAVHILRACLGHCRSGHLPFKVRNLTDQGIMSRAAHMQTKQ
measurement.kind: Ki (nM)

compound: N[C@@H](CCCCB(O)O)C(=O)O [2(S)-amino-6-boronohexanoic acid (ABH)]
target.system: Arginase (Schistosoma mansoni)
units.text: nM
value.reported: 1800
